Reported DC50 by item:
- System: WT BTK protein (Homo sapiens)
- Construct: measured for intracellular BTK protein levels by Western blotting; endogenous in cells; host or cells: TMD-8 or RAMOS cells
- Sequence (Q06187 whole entry): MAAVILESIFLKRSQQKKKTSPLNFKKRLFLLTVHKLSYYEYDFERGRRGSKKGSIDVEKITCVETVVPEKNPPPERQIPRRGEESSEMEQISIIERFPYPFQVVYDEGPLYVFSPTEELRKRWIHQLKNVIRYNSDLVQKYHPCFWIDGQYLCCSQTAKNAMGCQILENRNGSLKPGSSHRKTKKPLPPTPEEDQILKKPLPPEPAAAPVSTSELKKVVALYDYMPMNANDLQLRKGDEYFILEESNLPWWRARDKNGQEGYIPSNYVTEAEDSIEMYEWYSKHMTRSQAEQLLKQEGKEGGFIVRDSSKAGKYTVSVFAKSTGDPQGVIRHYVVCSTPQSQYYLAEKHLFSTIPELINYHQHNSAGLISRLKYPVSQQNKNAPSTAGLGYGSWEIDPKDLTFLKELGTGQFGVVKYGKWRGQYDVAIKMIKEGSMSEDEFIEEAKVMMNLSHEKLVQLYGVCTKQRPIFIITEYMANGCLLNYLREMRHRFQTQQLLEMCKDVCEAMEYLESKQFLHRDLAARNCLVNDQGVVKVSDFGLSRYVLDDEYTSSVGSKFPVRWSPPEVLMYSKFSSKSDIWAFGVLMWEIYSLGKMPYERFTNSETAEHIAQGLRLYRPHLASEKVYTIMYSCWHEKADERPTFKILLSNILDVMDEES
- Assay method text: BTK protein degradation assay (Western blotting), WT BTK
- Format: cell-based
- Condition description: concentration range accounting for 50% degradation of WT BTK protein, TMD-8 or RAMOS cells, 24 hours

Examples with answers:
Cc1cccc(C)c1Nc1nn(C)c2nc(Nc3ccc4c(c3)CN(C3CCN(CC5CCN(c6ccc7c(c6)C(=O)N(C6CCC(=O)NC6=O)C7=O)CC5)CC3)CC4)ncc12 (centres unmarked) [Compound 139] : 0.1 to 10 nM
Cc1cccc(C)c1Nc1nn(C)c2nc(Nc3ccc4c(c3)CN(CC3CCN(c5ccc6c(=O)n(C7CCC(=O)NC7=O)nnc6c5)CC3)C4)ncc12 (centres unmarked) [Compound 74] : 10 to 1000 nM
Cc1cccc(C)c1Nc1nn(C)c2nc(Nc3ccc4c(c3)CN(C(=O)C3CCN(C(=O)COc5ccc6nnn(C7CCC(=O)NC7=O)c(=O)c6c5)CC3)CC4)ncc12 (centres unmarked) [Compound 55] : 0.1 to 10 nM
Cc1cccc(C)c1Nc1nn(C)c2nc(Nc3ccc4c(c3)CN(CC3CCN(C(=O)CNc5ccc6c(c5)CN(C5CCC(=O)NC5=O)C6=O)CC3)CC4)ncc12 (centres unmarked) [Compound 80] : 0.1 to 10 nM
Cc1cccc(C)c1Nc1nn(C)c2nc(Nc3ccc4c(c3)CN(CC(=O)N3CCN(c5ccc6c(c5)CN(C5CCC(=O)NC5=O)C6=O)CC3)CC4)ncc12 (centres unmarked) [Compound 103] : 10 to 1000 nM

Q: Data request, read-out DC50, for COCCOc1cc(C)c(Nc2nn(C)c3nc(Nc4ccc5c(c4)C(C)(C)N(C(=O)CCC(=O)Nc4ccc(OCCOCCOCCOCCNc6cccc7c6C(=O)N(C6CCC(=O)NC6=O)C7=O)cc4)CC5)ncc23)c(C)c1 (centres unmarked) [Compound 6]
A: 10 to 1000 nM

Q: Which DC50 is reported for this molecule? Cc1cccc(C)c1Nc1nn(C)c2nc(Nc3ccc4c(c3)CN(CC3CN(c5ccc6c(c5)C(=O)N(C5CCC(=O)NC5=O)C6=O)C3)CC4)ncc12 (centres unmarked) [Compound 47]
A: 0.1 to 10 nM

Data origin: patent US12161722B2
